# Test system: Fibroblast
# Assay overview: Incucyte cell viability with human fibroblast; also: unitless GR value; below 1 slowed growth and below 0 cell loss
# Assay type: toxicity, cell-based
# Condition details: 24 h, 10 µM, compound concentration 10 uM, replicate number 2
Reported values of Growth Rate for individual entries
Measured attribute: Growth Rate

>>> data_value("COc1cc(C(=O)NC2CCN(C)CC2)ccc1Nc1ncc2c(n1)N(C1CCCC1)CC(F)(F)C(=O)N2C")
0.42
>>> data_value("Cc1cc(C)cc(C(=O)NOCCCCCC(=O)NO)c1")
0.51
>>> data_value("COc1cc(OC)cc(-c2cc3cnc(N)nc3nc2NC(=O)NC(C)(C)C)c1")
0.45
>>> data_value("CCCCCN1C(=O)C2(COc3cc4c(cc32)OCO4)c2ccccc21 (stereo not given)")
0.74
>>> data_value("CCN(C)S(=O)(=O)Nc1cccc(-c2ccc3c(NC(=O)C4CC4)n[nH]c3c2)c1")
-0.03
>>> data_value("Cc1cc(OC2CCS(=O)(=O)CC2)cc(C)c1-c1cccc(COc2ccc(C(=O)O)c(F)c2)c1")
0.92
>>> data_value("O=S1(=O)NCN(C2CC2)c2ccc(F)cc21")
0.91
>>> data_value("CN[C@@H](C)C(=O)N[C@H]1CN(C(=O)CC(C)C)CC[C@H]2CC[C@@H](C(=O)NC(c3ccccc3)c3ccccc3)N2C1=O")
0.88
>>> data_value("Cc1cnc(Nc2ccc(C(=O)N3CCN(C)CC3)cc2)nc1N[C@@H]1CCC[C@@H]1C(N)=O")
0.61
>>> data_value("Cc1nc2ccc(Cl)cc2c(-c2ccccc2)c1CC(=O)O.Cl")
0.96
>>> data_value("CCN(CC)C/C=C/C(=O)Nc1cc2c(Nc3ccc(F)c(Cl)c3)ncnc2cc1OCC1CC1")
-0.46
>>> data_value("CCc1ccc(N(CC(C)C)S(=O)(=O)c2ccc(OCC3CCOCC3)c(CO)c2)cc1")
0.85
>>> data_value("COc1ccccc1Nc1nc(-c2nn(Cc3c(F)cc(OCCCO)cc3F)c3ccccc23)ncc1OC")
0.85
>>> data_value("c1ccc2c(c1)SCc1c-2[nH]c2ccccc12")
-0.84
>>> data_value("Cc1c(C(=O)Nc2cccc(C(F)(F)F)c2)cc(-c2ccccc2)n1CCCN1CCOCC1.Cl")
0.84
>>> data_value("Nc1ncnc2c1c(COc1cccc(Cl)c1)nn2C1CCOCC1")
0.92
>>> data_value("CC(C)(C)c1cc(NC(=O)c2csc(Nc3ccccn3)n2)no1")
0.35
>>> data_value("N[C@@H]1CCCC[C@H]1Oc1ccc2ncc(-c3cc4ccccc4o3)n2n1")
-0.55
>>> data_value("NC(=O)OC[C@H](NC(=O)Cn1nc(-c2ccc(Cl)cc2)n(C[C@H](O)C(F)(F)F)c1=O)c1cccc(C(F)(F)F)c1")
0.7
>>> data_value("CCN1C(=O)N(c2c(F)c(OC)cc(OC)c2F)Cc2cnc3[nH]c(CN4CCOCC4)cc3c21")
0.49

###

# Test system: Fibroblast
# Assay overview: Incucyte cell viability with human fibroblast; also: unitless GR value; below 1 slowed growth and below 0 cell loss
# Assay type: toxicity, cell-based
# Condition details: 6 h, 10 µM, compound concentration 10 uM, replicate number 2
Grouping key: Growth Rate. Bins: low value = under -0.8, medium value = from -0.8 up to 0.3, high value = 0.3 and over

>>> label("COc1cc2nc(C)nc(NC3(c4ccccc4)CC3)c2cc1OC")
"high value"
>>> label("CCc1cc2c(cc1-c1cccc(S(=O)(=O)F)c1)C(C)(C)c1[nH]c3cc(C#N)ccc3c1C2=O")
"high value"
>>> label("CN[C@@H](C)C(=O)N[C@H](C(=O)N1CCC[C@H]1C(=O)Nc1sc(-c2ncco2)nc1-c1ccccc1)C1CCCCC1 [GDC-0917]")
"high value"
>>> label("O=C1NC(=Nc2c(Cl)cccc2Cl)S/C1=C\\c1ccc2nccnc2c1")
"high value"
>>> label("COc1cc(C(=O)NC2CCN(C)CC2)ccc1Nc1ncc(C(F)(F)F)c(NCc2ccc(C)cc2N(C)S(C)(=O)=O)n1.O=CO.O=CO")
"medium value"
>>> label("CCNC1=N[C@@H]2[C@@H](O)[C@H](O)[C@@H](CO)O[C@@H]2S1")
"medium value"
>>> label("CNc1nc(-c2cc(C(=O)N3CCN(Cc4ccc(Cl)cc4)CC3)c(Cl)cn2)cs1")
"low value"
>>> label("C/C(=C\\C(=O)Nc1ccccc1C(=O)[O-])c1ccc2ccccc2c1.[Na+]")
"medium value"
>>> label("C=CC(=O)Nc1cc(Nc2nccc(-n3cc(CN(C)C)c(-c4ccccc4)n3)n2)c(OC)cc1N1CCOCC1 [LAZERTINIB]")
"low value"
>>> label("CC(C)(C)c1ccc(-c2coc3ccc(-c4cn[nH]c4)nc23)cc1")
"low value"
>>> label("NC(=O)c1cc2c(-c3ccc(C(=O)NCc4ccnc(Cl)c4)s3)cccc2s1")
"low value"
>>> label("O=C(N[C@H]1CN2CCC1CC2)c1ccc(Cl)cc1 [PNU-282987]")
"medium value"
>>> label("CS(=O)(=O)O.C[C@H](NC(=O)c1cnc2n1[C@](C)(Cc1ccc(C#N)cc1)C(=O)N2c1cc(Cl)c(F)c(Cl)c1)C(=O)NC1(c2ccccn2)CC1")
"high value"
>>> label("CC(C)(C)c1cc(C(C)(C)C)c(NC(=O)c2c[nH]c3ccccc3c2=O)cc1O [IVACAFTOR]")
"high value"
>>> label("CC(=O)O[C@H]1C(=O)[C@@]2(C)[C@H]([C@H](OC(=O)c3ccccc3)[C@]3(O)C[C@H](OC(=O)[C@H](O)[C@@H](NC(=O)c4ccccc4)c4ccccc4)C(C)=C1C3(C)C)[C@]1(OC(C)=O)CO[C@@H]1C[C@@H]2O [PACLITAXEL]")
"low value"
>>> label("O=C(NC1CCNCC1)c1n[nH]cc1NC(=O)c1c(Cl)cccc1Cl [AT-7519]")
"medium value"
>>> label("C=C[C@H]1C[N@@]2CC[C@H]1C[C@@H]2[C@@H](O)c1ccnc2ccc(OC)cc12 [QUINIDINE]")
"medium value"
>>> label("CCOC(=O)C1Cc2ccccc2CN1C(=O)c1ccc(SC)s1 (stereo not drawn)")
"medium value"
>>> label("COc1cc2c(NC3CCN(C(C)C)CC3)nc(C3CCCCC3)nc2cc1OCCCN1CCCC1")
"medium value"
>>> label("N#Cc1ccc(COc2ccc(Br)cc2CNCCO)cn1.O=CO")
"high value"
>>> label("C[C@@H](COCCC(=O)N1CCN(c2ncc(C(F)(F)F)cn2)CC1)Nc1cn[nH]c(=O)c1C(F)(F)F [ATAMPARIB]")
"high value"
>>> label("C[C@@H](NC(=O)Cc1ccc(C2CC2)cc1)c1ccc(OCC(F)(F)F)cn1")
"low value"
>>> label("CC(C)NC(=O)[C@H]1CCC[C@H]1Nc1nc(Nc2ccc(C(=O)N(C)C3CCN(C)CC3)cc2)ncc1Cl")
"medium value"
>>> label("CN1[C@@H](CC(=O)c2ccccc2)CCC[C@H]1C[C@H](O)c1ccccc1.Cl [LOBELINE HYDROCHLORIDE]")
"medium value"
>>> label("CN1CCC[C@H]1c1cccnc1 [NICOTINE]")
"low value"
>>> label("CC(C)CC(=O)Nc1cncc(-c2ccc3[nH]nc(-c4nc5c(-c6cccc(F)c6)cncc5[nH]4)c3c2)c1 [LORECIVIVINT]")
"low value"
>>> label("COc1ccc(-c2cc3c(C)nc(N)nc3n([C@H]3CC[C@H](OCCO)CC3)c2=O)cn1 [PF-04691502]")
"high value"
>>> label("COc1cccc(-c2c(C)c(Cc3c(F)cccc3C(F)(F)F)c3n(c2=O)[C@@H]([C@@H](N)c2ccccc2)CS3)c1F")
"medium value"
>>> label("FC(F)(F)c1ccc(Nc2ncnc3cc(-c4ncccc4C(F)(F)F)ccc23)cc1 [NGD-8243]")
"low value"
>>> label("Nc1ncnc2[nH]c(-c3ccccc3)nc12")
"high value"
>>> label("Cn1c(Nc2c(Cl)cccc2Cl)nc2ccc3nc[nH]c(=O)c3c21")
"medium value"

###

# System: U2OS
# Assay overview: Incucyte cell viability with U2OS; also: unitless GR value; below 1 slowed growth and below 0 cell loss
# Format: toxicity, cell-based
# Condition details: human, 24 h, 10 µM, compound concentration 10 uM, replicate number 1
// assign fulfilled if Growth Rate falls strictly below 0.8, else not fulfilled (ties count as not fulfilled)

>>> label("Oc1cc2c(cc1O)CN(C(=S)NCCc1ccc(Cl)cc1)CCC2 [CAPSAZEPINE]")
"fulfilled"
>>> label("CCNCCNC(=O)c1c(C)[nH]c(/C=C2\\C(=O)Nc3ccc(F)cc32)c1C")
"fulfilled"
>>> label("Cc1ccc(S(=O)(=O)Nc2ccc(-n3nc(C(F)(F)F)cc3C(F)(F)F)cc2)cc1")
"not fulfilled"
>>> label("O=C(Nc1cccc(Nc2nccc(Nc3cccc(C(F)(F)F)c3)n2)c1)C1CC1")
"fulfilled"
>>> label("Cc1ccc(NC(=O)c2ccc3c(c2)OCCO3)cc1NC(=O)c1ccc2nc(OCCN3CCCC3)ccc2c1")
"fulfilled"
>>> label("Cn1c(C2(NC(=O)c3ccc(NCC4CCCCC4)nc3)CCC2)nc2ccc(/C=C/C(=O)O)cc21")
"not fulfilled"
>>> label("CCS(=O)(=O)Nc1cccc(Oc2cncc(Nc3ccc(I)cc3F)c2C(N)=O)c1")
"not fulfilled"
>>> label("N=C(N)NCCC[C@H](NC(=O)C(c1ccccc1)c1ccccc1)C(=O)NCc1ccc(CNC(N)=O)cc1.O=C(O)C(F)(F)F")
"not fulfilled"
